Listed variants paired with reported self-cleavage
B1: CPEB3 Ribozyme (parent)
chain: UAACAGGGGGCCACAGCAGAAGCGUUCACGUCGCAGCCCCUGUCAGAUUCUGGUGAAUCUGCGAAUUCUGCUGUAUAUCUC

variants of: B1; assay: self-cleavage, relative activity (ratio to wild type); higher = more cleavage; in vitro, sequencing
The reply should be a number, written without any unit.

Observe how each entry below is paired with its result.
A35G G52C: 1.27
U41C G55U: 1.17
C37U C44U: 0.13
A13U U67A: 0.7
U25A G30A: 0.13

# context switch: different variant, same self-cleavage
The variant U26A A56U showed self-cleavage equal to 0.4

Source listed as the RNAGym collection of RNA variant scans (doi:10.1093/nar/gkz1192).
